mortality at 200 ppm: recorded values
Tested on: Bemisia tabaci
experimentNotes: Activity against Bemisia tabaci (cotton white fly), cotton leaf discs
Format: in vivo
studyConditions: foliar, 144 h, application rate 200 ppm, adult white flies, 6 days after incubation

Q) Give recorded mortality at 200 ppm. CCS(=N)(=O)c1cc(C2(C#N)CC2)ccc1-c1nc2cc(C(F)(F)F)cnc2n1C (single isomer, unassigned) [Compound P6-A]
A) ≥ 80%

Q) Give recorded mortality at 200 ppm. CCS(=N)(=O)c1cc(C2(C#N)CC2)cnc1-c1nc2cc(C(F)(F)F)ncc2n1C (single isomer, unassigned) [Compound P10-A]
A) ≥ 80%

Q) Give recorded mortality at 200 ppm. CCS(=N)(=O)c1cc(OC(C)(C)C#N)cnc1-c1nc2cc(C(F)(F)F)nnc2n1C (racemic) [Compound P15]
A) ≥ 80%
